Molecular target: pre-existing anti-scFv903 antibodies in human serum H76 (human)
Assay: competition ADA bridging ELISA, 100 mcg/ml competitor
reported-metric: % reduction in OD (%)
Response body: numeric value in %, unit text excluded.

Look at this binder and give its reported % reduction in OD. scFv105 (scFv) scFv: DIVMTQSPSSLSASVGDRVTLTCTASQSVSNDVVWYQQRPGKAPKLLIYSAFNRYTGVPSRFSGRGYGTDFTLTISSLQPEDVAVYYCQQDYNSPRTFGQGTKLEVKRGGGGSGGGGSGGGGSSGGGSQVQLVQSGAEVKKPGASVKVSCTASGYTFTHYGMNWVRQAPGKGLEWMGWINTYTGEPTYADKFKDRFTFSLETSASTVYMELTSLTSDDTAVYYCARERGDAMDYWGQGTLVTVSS
-65.7

Look at this binder and give its reported % reduction in OD. scFv 903 (scFv) scFv: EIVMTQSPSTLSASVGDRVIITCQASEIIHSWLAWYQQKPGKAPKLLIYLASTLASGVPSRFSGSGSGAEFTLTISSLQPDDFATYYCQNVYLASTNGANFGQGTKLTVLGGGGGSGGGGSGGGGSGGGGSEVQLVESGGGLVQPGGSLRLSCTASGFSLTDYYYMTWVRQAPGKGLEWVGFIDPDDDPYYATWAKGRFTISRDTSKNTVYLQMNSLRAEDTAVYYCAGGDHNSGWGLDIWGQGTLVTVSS
-97

Look at this binder and give its reported % reduction in OD. scFv 791 (scFv) scFv: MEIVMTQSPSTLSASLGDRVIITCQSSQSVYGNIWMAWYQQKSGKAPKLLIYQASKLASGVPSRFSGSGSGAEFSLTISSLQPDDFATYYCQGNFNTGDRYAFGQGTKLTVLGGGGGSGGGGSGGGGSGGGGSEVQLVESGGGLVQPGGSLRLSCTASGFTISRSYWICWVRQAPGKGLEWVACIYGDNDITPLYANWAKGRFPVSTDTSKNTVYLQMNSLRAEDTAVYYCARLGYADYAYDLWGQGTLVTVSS
-48.6

Look at this binder and give its reported % reduction in OD. scFv 961 (scFv) scFv: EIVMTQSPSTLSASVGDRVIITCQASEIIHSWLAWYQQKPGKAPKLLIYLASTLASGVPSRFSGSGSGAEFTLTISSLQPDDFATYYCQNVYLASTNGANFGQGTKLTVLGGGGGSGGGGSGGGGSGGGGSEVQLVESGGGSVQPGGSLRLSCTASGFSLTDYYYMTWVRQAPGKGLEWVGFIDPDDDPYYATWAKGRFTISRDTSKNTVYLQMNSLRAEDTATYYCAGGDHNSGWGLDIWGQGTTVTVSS
-36.4
